This listing pairs binders with measured Kd.
Target: T1, recombinant human IL-1α (human) (UniProt P01583)
T1 sequence: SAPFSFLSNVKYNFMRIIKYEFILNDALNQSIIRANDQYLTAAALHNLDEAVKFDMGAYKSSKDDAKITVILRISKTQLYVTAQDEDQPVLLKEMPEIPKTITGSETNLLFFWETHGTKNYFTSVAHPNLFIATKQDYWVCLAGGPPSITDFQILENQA
Assay: SPR (Biacore), antibody captured, IL-1α in solution
Quick reminder: number only, in nM, skip the unit.

Sample answers from the record:
humanized anti-human IL-1α antibody H3D12.r10 (antibody, from a related filing, human IgG1, V domains shown) VH: EIQLVQSGAEVKKPGASVKVSCKASGYTFAHYGMNWVRQAPGQGLEWMGWINTYTGQSTYADDFKGRFTFTLDTSTSTAYMELSSLRSEDTAVYYCARGIYYFGSNYAMDYWGQGTTVTVSS VL: DIQMTQSPSSLSASVGDRVTITCRASQDISNMLNWYQQKPGKTPKLLIYYTSRLRSGVPSRFSGSGSGTDYTFTISSLQPEDIATYFCQQGKKPPYTFGQGTKLEIK ... 0.032
humanized anti-human IL-1α antibody H3D12.16 (antibody, from a related filing, human IgG1, V domains shown) VH: EIQLVQSGAEVKKPGASVKVSCKASGYTFTNYGMNWVRQAPGQDLERMAWINTYTGESTYADDFKGRFTFTLDTSTSTAYMELSSLRSEDTAVYFCARGIYYYGSSYAMDYWGQGTTVTVSS VL: DIQMTQSPSSLSASVGDRVTITCRASQDISNCLNWYQQKPGKTPKLLIYYTSRLHSGVPSRFSGSGSGTDYTFTISSLQPEDIATYFCQQGKTLPYAFGQGTKLEIK ... 2.09

Turning to the following binder.
Given humanized anti-human IL-1α antibody H3D12.r16 (antibody, from a related filing, human IgG1, V domains shown) VH: EVQLVQSGAEVKKPGASVKVSCKASGYTFKYYGMNWVRQAPGQGLERMGWINTYTGQSTYADDFKGRVTFTLDTSTSTAYMELSSLRSEDTAVYYCARDIYYYGSDFAMDYWGQGTTVTVSS VL: DIQMTQSPSSLSASVGDRVTITCRASQDISNMLNWYQQKPGKAPKLLIYYTSRLKPGVPSRFSGSGSGTDYTFTISSLQPEDIATYFCQQGKTAPYTFGQGTKLEIK , state its recorded Kd. 0.031

Data provenance is patent US20100221179A1.
